target: Neu5Ac(a2-3)Gal(b1-3)[Neu5Ac(a2-3)Gal(b1-4)]GlcNAc; experiment: glycan array binding signal (z-score within array); higher = stronger binding; settings: glycan notation: IUPAC condensed, linker removed
Only a selection was taken, and the strongest signals are over-represented in it overall.
EXPERIMENTAL_READOUT: glycan array binding signal (z-score)

The cases that follow already have their glycan array binding signal (z-score) on record.
BINDER	glycan array binding signal (z-score)
Crocus Lectin (Crocus vernus), Q9FVA1 (protein) MAKSLVLSSLLLALLLAAPLASLADNNVLLTGDVLHTDNQLSFESAAFVMQGDCNLVLYNEAGGFQSNTHGRGVGCTLRLNNFGQLEIHSANSNTPVWVSLRNGIPVRGDYAAVLGPDQHVTIYGPAIWSTPAPNRHERGATVSNIPRVRNVLFSSQVMSDNAQLATRDYSLVMRDDCNLALTKGSKTNIVWESGTSGRGQHCFMRLGHTGLIEISDDRLNTVWRSNTVGQEGDYVLILQINGQAVVYGPAVWSTASPARGGASAAL	-0.169
PMA (Polygonatum multiflorum) (protein) LLTTTLFVFISSTRSLASTNVLYSDVGNAILNAKESLIYGDYRLDMQSDCNLVLYNKAAPYWASGTRWSWGGNCHLNLQSNGELVMYAYLGRTRIAIWRSGIISATGSYALVLKYDGALHVHGPSLWSTNATGPTTPTTASWSIDSTLWSGDVATIGPTIANGDYKLELLDTCNLTLSNTKTGQVLWYTNTTDWVHDCYVNIEGNGELKIKYLGGATLWSNKVGAGYTNNYVLGLRPDGKLDTYNAPIWSPTIGPGVHVAPAVYNASSNAVAAEGNGEKIAMVTGRAKNST	-0.191

Would you kindly look at the next entry?
What value of measured glycan array binding signal (z-score) is listed for NKp30 (Homo sapiens), O14931 (protein) LWVSQPPEIRTLEGSSAFLPCSFNASQGRLAIGSVTWFRDEVVPGKEVRNGTPEFRGRLAPLASSRFLHDHQAELHIRDVRGHDASIYVCRVEVLGLGVGTGNGTRLVVEKEHPQLG ?
0.776
